target: A1 adenosine receptor (Mesocricetus auratus, UniProt A0A1U8BVR4); construct: A1 adenosine receptor sites on the membranes of DDT cells; endogenous in cells; test: Competitive radioligand binding assay, A1 binding affinity, DDT1 cell membranes; settings: membranes of DDT cells, tritiated radioligand (3H-CPA) 1.5 nM, 23° C. 90 minutes
Sequence (A0A1U8BVR4 1-326): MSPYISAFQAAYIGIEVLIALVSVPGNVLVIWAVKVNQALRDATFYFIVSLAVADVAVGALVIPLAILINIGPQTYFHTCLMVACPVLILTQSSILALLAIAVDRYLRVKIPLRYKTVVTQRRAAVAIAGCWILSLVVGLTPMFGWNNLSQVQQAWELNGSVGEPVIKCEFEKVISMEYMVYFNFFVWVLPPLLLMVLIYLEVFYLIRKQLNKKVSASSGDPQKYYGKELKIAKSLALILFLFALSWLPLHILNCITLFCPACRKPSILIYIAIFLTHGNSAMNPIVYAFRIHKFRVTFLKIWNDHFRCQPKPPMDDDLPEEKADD
pKi: −log10 of the molar value.
Assign t whenever pKi does not fall below 7; assign f whenever it does.

Past entries and their recorded results:
CCOC(=O)c1cnn(-c2nc(NC3CCCC3)c3ncn([C@@H]4O[C@H](CO)[C@@H](O)[C@H]4O)c3n2)c1 (single isomer, unassigned) [XXV]: t
NC(=O)c1cnn(-c2nc(NC3CCCC3)c3ncn([C@@H]4O[C@H](CO)[C@@H](O)[C@H]4O)c3n2)c1: t
CCOC(=O)c1cnn(-c2nc(NCc3ccccc3)c3ncn([C@@H]4O[C@H](CO)[C@@H](O)[C@H]4O)c3n2)c1: f
CCNC(=O)[C@H]1O[C@@H](n2cnc3c(NC4CCOC4)nc(-n4cc(-c5ccc(C)cc5)cn4)nc32)[C@H](O)[C@@H]1O (stereo partly shown): f

stdin: Does CNC(=O)c1cnn(-c2nc(NCc3ccccc3)c3ncn([C@@H]4O[C@H](CO)[C@@H](O)[C@H]4O)c3n2)c1 have a reported pKi of at least 7?
stdout: f

###

biological target: A1 adenosine receptor (Mesocricetus auratus, UniProt A0A1U8BVR4); construct: A1 adenosine receptor sites on the membranes of DDT cells; endogenous in cells; host or cells: DDT cells (DDT1, hamster vas deferens smooth muscle cell line), membrane preparation; assay: Competitive radioligand binding assay, A1 binding affinity, DDT1 cell membranes; design: species or system hamster; conditions: membranes of DDT cells, tritiated radioligand (3H-CPA) 1.5 nM, 23° C. 90 minutes
Measured property: Ki (nM)
Express it in nM; write the number only.

Just so you know, measured Ki for (4S,3R,5R)-2-[2-(4-butyl-3,5-dimethylpyrazolyl)-6-(cyclopentylamino)purin-9-yl]-5-(hydroxymethyl)oxolane-3,4-diol [XXVIII] came out at 188
